target: Alpha-glucosidase MAL12 (Saccharomyces cerevisiae (strain ATCC 204508 / S288c)); assay: Alpha-glucosidase Assay; settings: pH 6.8
Sequence (P53341 whole entry): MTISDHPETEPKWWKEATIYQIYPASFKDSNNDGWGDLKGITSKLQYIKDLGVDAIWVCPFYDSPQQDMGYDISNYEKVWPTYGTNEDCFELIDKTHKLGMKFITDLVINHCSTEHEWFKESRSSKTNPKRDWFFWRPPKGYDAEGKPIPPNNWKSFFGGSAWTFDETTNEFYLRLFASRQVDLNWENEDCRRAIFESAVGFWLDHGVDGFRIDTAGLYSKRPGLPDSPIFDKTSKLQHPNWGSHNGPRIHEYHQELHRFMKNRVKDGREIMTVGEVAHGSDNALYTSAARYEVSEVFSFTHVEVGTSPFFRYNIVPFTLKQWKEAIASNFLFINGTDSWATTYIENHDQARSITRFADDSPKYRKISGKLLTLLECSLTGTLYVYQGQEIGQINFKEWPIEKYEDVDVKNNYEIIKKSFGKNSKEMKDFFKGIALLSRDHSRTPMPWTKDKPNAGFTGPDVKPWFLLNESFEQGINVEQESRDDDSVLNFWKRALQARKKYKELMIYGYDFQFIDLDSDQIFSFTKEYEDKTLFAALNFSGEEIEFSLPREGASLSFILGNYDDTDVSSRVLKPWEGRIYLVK
Reported IC50 maps to class as: bin A (below 100 µM), bin B (100 µM to below 200 µM), bin C (200 µM or more)

Class (by measured IC50) for COc1ccc(-c2csc(N/N=C/c3ccc(O)c(O)c3)n2)cc1
bin A

Class (by measured IC50) for COc1ccc(/C=N/Nc2nc(-c3ccc(Cl)cc3)cs2)cc1O
bin B

Class (by measured IC50) for O=[N+]([O-])c1cccc(/C=N/Nc2nc(-c3ccc(Cl)cc3)cs2)c1
bin C

Class (by measured IC50) for O=[N+]([O-])c1ccccc1/C=N/Nc1nc(-c2ccc(Cl)cc2)cs1
bin C

Class (by measured IC50) for C/C(=N\Nc1nc(-c2ccc(Cl)cc2)cs1)c1ccc(N2CCCCC2)cc1
bin C

Class (by measured IC50) for Clc1ccc(-c2csc(N/N=C/c3ccc(OCc4ccccc4)cc3)n2)cc1
bin A

Class (by measured IC50) for COc1ccc(-c2csc(N/N=C\c3cccc(/C=N/Nc4nc(-c5ccc(OC)cc5)cs4)c3)n2)cc1
bin A

Class (by measured IC50) for Clc1ccc(-c2csc(N/N=C/c3ccc(/C=N/Nc4ncc(-c5ccc(Cl)cc5)s4)cc3)n2)cc1
bin C

Class (by measured IC50) for COc1ccc(-c2csc(N/N=C/c3ccc(OC)c(O)c3)n2)cc1
bin B

Class (by measured IC50) for C/C(=N\Nc1nc(-c2ccc(Cl)cc2)cs1)c1ccc([N+](=O)[O-])cc1Br
bin A

Class (by measured IC50) for COc1ccc(-c2csc(N/N=C(\C)c3cccc([N+](=O)[O-])c3)n2)cc1
bin C

Class (by measured IC50) for Clc1ccc(-c2csc(N/N=C\c3cccc(/C=N/Nc4nc(-c5ccc(Cl)cc5)cs4)c3)n2)cc1
bin A

Class (by measured IC50) for COc1ccc(-c2csc(N/N=C/c3c4ccccc4cc4ccccc34)n2)cc1
bin B

Class (by measured IC50) for COc1ccc(-c2csc(N/N=C/c3ccc(/C=N/Nc4ncc(-c5ccc(OC)cc5)s4)cc3)n2)cc1
bin C

Class (by measured IC50) for COc1ccc(-c2csc(N/N=C/c3ccc(N(C)C)cc3)n2)cc1
bin B

Class (by measured IC50) for CC(C)(C)c1cc(/C=N/Nc2nc(-c3ccc(Cl)cc3)cs2)cc(C(C)(C)C)c1O
bin A

Class (by measured IC50) for COc1ccc(-c2csc(N/N=C/c3cc(C(C)(C)C)c(O)c(C(C)(C)C)c3)n2)cc1
bin B

Class (by measured IC50) for Clc1ccc(-c2csc(N/N=C/c3ccc4ccccc4c3)n2)cc1
bin B

Origin of values: BindingDB's records for doi:10.1016/j.bioorg.2015.06.006
